The measurements presented in this section are drawn from patent US20210161997A1.

I'd be grateful if you could share measured LDLR Fold Change (Log2) for these entries.
# Test system: LDLR
# experimentSummary: RNA-seq of LDLR expression in compound-treated primary human hepatocytes
# Assay type: cell-based
Numbers only, in Log2.

Record excerpt, results attached:
[
  {
    "compound": "O=c1cc(N2CCOCC2)oc2c(-c3ccccc3)cccc12",
    "endpointName": "LDLR Fold Change (Log2)",
    "displayUnit": "Log2",
    "observed": 0.48
  },
  {
    "compound": "C=CC(=O)Nc1cccc(Nc2nc(Nc3ccc(N4CCN(C(C)=O)CC4)cc3OC)ncc2C(F)(F)F)c1 [CO-1686 (Rociletinib), Rociletinib]",
    "endpointName": "LDLR Fold Change (Log2)",
    "displayUnit": "Log2",
    "observed": 0.51
  },
  {
    "compound": "CNC(=O)Nc1ccc(-c2nc(N3CC4CCC(C3)O4)c3cnn(C4CCC5(CC4)OCCO5)c3n2)cc1",
    "endpointName": "LDLR Fold Change (Log2)",
    "displayUnit": "Log2",
    "observed": 1.46
  }
]

Batch of 3 compounds: report LDLR Fold Change (Log2) for each.
1. NS(=O)(=O)C#Cc1ccccc1
2. CN1CCC(CNc2ccc3ncc(-c4cccc(OC(F)(F)F)c4)n3n2)CC1
3. COCCOc1ccc(N2CCN(CCn3ncc4c3nc(N)n3nc(-c5ccco5)nc43)CC2)cc1

[0.60, 0.48, 1.07]

----------
# Tested on: SERPINC1
# experimentSummary: RNA-seq of SERPINC1 expression in compound-treated primary human hepatocytes
# Type: cell-based
# conditionInfo: significance FPKM ≥1, log 2(fold change) ≥0.5, q-value ≤0.05
I'd be grateful if you could share measured SERPINC1 Fold Change (Log2) for these entries.
Give bare numbers, in Log2.

[
  {
    "compound": "N#CCNC(=O)c1ccc(-c2ccnc(Nc3ccc(N4CCOCC4)cc3)n2)cc1",
    "SERPINC1 Fold Change (Log2)": 0.93
  },
  {
    "compound": "CS[C@H]1SC[C@H]2C(=O)N(C)[C@@H](C(C)C)C(=O)OC[C@@H](NC(=O)c3cnc4ccccc4n3)C(=O)N[C@@H](C)C(=O)N(C)[C@@H]1C(=O)N(C)[C@@H](C(C)C)C(=O)OC[C@@H](NC(=O)c1cnc3ccccc3n1)C(=O)N[C@@H](C)C(=O)N2C",
    "SERPINC1 Fold Change (Log2)": 2.29
  },
  {
    "compound": "COCCOc1ccc2c(c1)ncn2-c1ccc2cccc(N3CCC(N)CC3)c2n1",
    "SERPINC1 Fold Change (Log2)": 2.53
  }
]

Batch of 4 compounds: report SERPINC1 Fold Change (Log2) for each.
1. COc1cccc2c1C(=O)c1c(O)c3c(c(O)c1C2=O)C[C@@](O)(/C(CO)=N/NC(=O)CCCCCN1C(=O)C=CC1=O)C[C@@H]3O[C@H]1C[C@H](N)[C@H](O)[C@H](C)O1
2. S=C(NCc1ccc2c(c1)OCO2)N1CCN(c2ncnc3c2oc2ccccc23)CC1
3. NS(=O)(=O)C#Cc1ccccc1
4. O=C1CCC(N2C(=O)c3ccccc3C2=O)C(=O)N1 (stereo not shown) [Thalidomide]

1: 1.00; 2: 1.33; 3: 0.79; 4: 0.88

----------
# System: ANGPTL3
# experimentSummary: RNA-seq of ANGPTL3 expression in compound-treated primary human hepatocytes; also: test concentration or dose not given here
# Type: cell-based
# conditionInfo: additional compounds (Table 13), linear fold change
endpointName: ANGPTL3-LINEAR FOLD CHANGE
Numbers only.

[
  {
    "compound": "FC(F)(F)c1ccc(/C=C/c2nc(COc3ccc(CCCCn4ccnn4)cc3)co2)cc1",
    "observed": 0.3392
  },
  {
    "compound": "CN(C)C/C=C/C(=O)Nc1cc2c(Nc3ccc(F)c(Cl)c3)ncnc2cc1O[C@H]1CCOC1",
    "observed": 0.3078
  },
  {
    "compound": "CCC[C@@H]1CC2=CC(=O)CC[C@]2(C)[C@H]2CC[C@@]3(C)[C@@H](CC[C@@]3(O)CCC(=O)[O-])[C@H]12.[K+]",
    "observed": 0.4005
  },
  {
    "compound": "COc1cc2nccc(Oc3ccc(NC(=O)Nc4cc(C)on4)c(Cl)c3)c2cc1OC",
    "observed": 0.4204
  },
  {
    "compound": "N=C(N)c1ccc(OCCCCCOc2ccc(C(=N)N)cc2)cc1 [Pentamidine isethionate]",
    "observed": 0.1321
  }
]

Batch of 4 compounds: report ANGPTL3-LINEAR FOLD CHANGE for each.
1. CO[C@H]1C[C@@H]2CC[C@@H](C)[C@@](O)(O2)C(=O)C(=O)N2CCCC[C@H]2C(=O)O[C@H]([C@H](C)C[C@@H]2CC[C@@H](OCCO)[C@H](OC)C2)CC(=O)[C@H](C)/C=C(\C)[C@@H](O)[C@@H](OC)C(=O)[C@H](C)C[C@H](C)/C=C/C=C/C=C/1C [Everolimus (RAD001), Everolimus]
2. NC(=O)N[C@@H](CCC(=O)O)C(=O)O
3. NCCC(O)(P(=O)(O)O)P(=O)(O)O [Pamidronate]
4. CC(C)(O)CC(=O)NCCn1ccc2ncnc(Nc3ccc(Oc4cccc(C(F)(F)F)c4)c(Cl)c3)c21

1: 0.483; 2: 0.1975; 3: 0.1528; 4: 0.3842

Batch of 3 compounds: report ANGPTL3-LINEAR FOLD CHANGE for each.
1. COc1cc2c(Oc3ccc(NC(=O)C4(C(=O)Nc5ccc(F)cc5)CC4)cc3F)ccnc2cc1OCCCN1CCOCC1
2. CC(=O)NCC(=O)N1[C@@H]2CC[C@H]1c1ccc(Nc3ncc(C(F)(F)F)c(NC4CCC4)n3)cc12
3. COCCOCOc1cc2ccc(-c3ccc(C(=O)O)cc3)cc2cc1C12CC3CC(CC(C3)C1)C2

1. 0.3368
2. 0.4383
3. 0.395

Batch of 7 compounds: report ANGPTL3-LINEAR FOLD CHANGE for each.
1. Cl.Clc1cccc(N2CCNCC2)c1 [1(3-Chlorophenyl)piperazine HCl]
2. CC/C(=C(\c1ccccc1)c1ccc(OCCN(C)C)cc1)c1ccccc1
3. COc1cc(C(=O)NS(=O)(=O)c2ccccc2C)ccc1Cc1cn(C)c2ccc(NC(=O)OC3CCCC3)cc12
4. CCN1CCN(Cc2ccc(-c3cc4c(N[C@H](C)c5ccccc5)ncnc4[nH]3)cc2)CC1
5. COc1ccc(-c2ccc3c(N4CCOC[C@@H]4C)nc(N4CCOC[C@@H]4C)nc3n2)cc1CO
6. CCN(CC)CCNC(=O)c1c(C)[nH]c(/C=C2\C(=O)Nc3ccc(F)cc32)c1C
7. O=C1NC(=O)C(c2cnc3ccccn23)=C1c1cn2c3c(cc(F)cc13)CN(C(=O)N1CCCCC1)CC2

1: 0.4414; 2: 0.2606; 3: 0.4506; 4: 0.1684; 5: 0.4965; 6: 0.3035; 7: 0.1895

----------
# Test system: JAG1
# experimentSummary: RNA-seq of JAG1 expression in compound-treated primary human hepatocytes
# Format: cell-based
# conditionInfo: primary human hepatocytes
endpointName: JAG1 Fold Change (Log2)
Answers are plain numbers, in Log2.

[
  {
    "compound": "Cn1cc(C2=C(c3cn(C4CCN(Cc5ccccn5)CC4)c4ccccc34)C(=O)NC2=O)c2ccccc21",
    "endpointName": "JAG1 Fold Change (Log2)",
    "observed": 1.03
  },
  {
    "compound": "COc1cccc2c1C(=O)c1c(O)c3c(c(O)c1C2=O)C[C@@](O)(/C(CO)=N/NC(=O)CCCCCN1C(=O)C=CC1=O)C[C@@H]3O[C@H]1C[C@H](N)[C@H](O)[C@H](C)O1",
    "endpointName": "JAG1 Fold Change (Log2)",
    "observed": 0.84
  },
  {
    "compound": "Cc1cc(-c2nc(-c3ccc(OC(F)(F)F)cc3)no2)nn1Cc1ccnc(N2CCN(C3CC3)CC2)c1",
    "endpointName": "JAG1 Fold Change (Log2)",
    "observed": 0.61
  },
  {
    "compound": "c1cc(-c2cnn3cc(-c4ccc(N5CCNCC5)cc4)cnc23)c2cccnc2c1",
    "endpointName": "JAG1 Fold Change (Log2)",
    "observed": 1.47
  },
  {
    "compound": "O=C1CCC(N2C(=O)c3ccccc3C2=O)C(=O)N1 (stereo not shown) [Thalidomide]",
    "endpointName": "JAG1 Fold Change (Log2)",
    "observed": 1.30
  }
]

Batch of 2 compounds: report JAG1 Fold Change (Log2) for each.
1. COc1nc(C)cnc1NS(=O)(=O)c1cccnc1-c1ccc(-c2nnco2)cc1
2. [H]/N=C(/N)N/C(=N/[H])NCCc1ccccc1

1: 0; 2: 1.14
